compounds and their reported melting point

>>> test_value("O=C(OCc1nc(/C=C/c2cn(-c3ccccc3)nc2O)cs1)c1ccccc1")
"215 to 216 °C"
>>> test_value("CN1CCC(=C2c3ccc(Cl)cc3C(=NO)Cc3cccnc32)CC1")
"172 to 175 °C"
>>> test_value("COC(=O)c1cc(C(=O)c2ncc3ccc(C(=O)O)cn23)ccc1[N+](=O)[O-]")
"290 °C"
>>> test_value("C[C@@H](NC(=O)c1cnn(-c2ccc(C(F)(F)F)cc2)c1N)[C@](O)(Cn1cncn1)c1ccc(F)cc1F")
"208 to 210 °C"
>>> test_value("COC(=O)NCCOc1ccc(Oc2ccc(F)cc2)cc1")
"64 to 66 °C"

Asked: Let me know recorded melting point for CC1CCc2cc3c(cc21)OCC(=O)CO3 (stereo not given) , thanks.
Given back: 79 to 80 °C

Asked: Let me know recorded melting point for COC(=O)CCc1cc(C)on1 , thanks.
Given back: 54 to 55 °C

Asked: Let me know recorded melting point for CCS(=O)(=O)N=CNCc1cccc(-c2csc(N=C(N)N)n2)n1 , thanks.
Given back: 201 °C

Asked: Let me know recorded melting point for Cc1cc2c(nc1C(O)c1cccc(Cl)c1)CCCCC2 (stereo not given) , thanks.
Given back: 123 to 125 °C

Asked: Let me know recorded melting point for O=C(OCc1ccccc1)OCC1OC(n2cc(F)c(=O)[nH]c2=O)C(O)C1O (stereo not given) , thanks.
Given back: 66 to 68 °C
